Values were extracted from paper PMC7949025.

study target: T1, biotinylated A93D-PNT domain (ETV6 residues 43-135, A93D, with Avitag) (human, UniProt P41212 43-135, A93D, biotin on the Avitag (~50 to 95% biotinylated))
T1 construct: ETV6, human, residues 43-135; made from the V112E construct by introducing A93D and E112V; also called biotinylated A93D-PNT domain ligand; A93D-PNT domain ligand; source: E. coli BL21 (λDE3) co-transformed with pET21a-BirA, purified (Ni-NTA, thrombin cleavage); not shown: His6, N-terminal, cleaved; Avitag, N-terminal, kept
T1 sequence (looked up): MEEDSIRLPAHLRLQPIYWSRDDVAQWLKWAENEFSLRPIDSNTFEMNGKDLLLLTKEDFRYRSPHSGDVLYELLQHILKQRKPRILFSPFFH
test: SPR; biotinylated A93D-PNT domain ligand captured on streptavidin Sensor Chip SA, PNT domain analytes flowed; Biacore X100, 25 °C, HBS-EP+ (10 mM HEPES, 150 mM NaCl, 3 mM EDTA, 0.05% v/v Tween-20, pH 7.4); analyte 0.2-60 nM, re-run at 20-6000 nM if KD > 60 nM
measurement conditions: both partners purified
Parameter: kon. Scope: all listed entries.
Use M⁻¹ s⁻¹ as the unit, but write only the number.

// solved cases for kon follow
binder	property label	readout value
K92A-V112E-PNT domain (domain or fragment, human, UniProt P41212 40-125, looked up, ETV6 PNT domain, human; source: E. coli BL21 (λDE3), purified (Ni-NTA, thrombin cleavage); not shown: His6, N-terminal, cleaved) ALRMEEDSIRLPAHLRLQPIYWSRDDVAQWLKWAENEFSLRPIDSNTFEMNGAALLLLTKEDFRYRSPHSGDELYELLQHILKQRK	kon	350000
E100A-V112E-PNT domain (domain or fragment, human, UniProt P41212 40-125, looked up, ETV6 PNT domain, human; source: E. coli BL21 (λDE3), purified (Ni-NTA, thrombin cleavage); not shown: His6, N-terminal, cleaved) ALRMEEDSIRLPAHLRLQPIYWSRDDVAQWLKWAENEFSLRPIDSNTFEMNGKALLLLTKADFRYRSPHSGDELYELLQHILKQRK	kon	500000
N90A-V112E-PNT domain (domain or fragment, human, UniProt P41212 40-125, looked up, ETV6 PNT domain, human; gene purchased commercially (Biomatik); source: E. coli BL21 (λDE3), purified (Ni-NTA, thrombin cleavage); not shown: His6, N-terminal, cleaved) ALRMEEDSIRLPAHLRLQPIYWSRDDVAQWLKWAENEFSLRPIDSNTFEMAGKALLLLTKEDFRYRSPHSGDELYELLQHILKQRK	kon	78000
I59A-V112E-PNT domain (domain or fragment, human, UniProt P41212 40-125, looked up, ETV6 PNT domain, human; source: E. coli BL21 (λDE3), purified (Ni-NTA, thrombin cleavage); not shown: His6, N-terminal, cleaved) ALRMEEDSIRLPAHLRLQPAYWSRDDVAQWLKWAENEFSLRPIDSNTFEMNGKALLLLTKEDFRYRSPHSGDELYELLQHILKQRK	kon	430000
M89A-V112E-PNT domain (domain or fragment, human, UniProt P41212 40-125, looked up, ETV6 PNT domain, human; source: E. coli BL21 (λDE3), purified (Ni-NTA, thrombin cleavage); not shown: His6, N-terminal, cleaved) ALRMEEDSIRLPAHLRLQPIYWSRDDVAQWLKWAENEFSLRPIDSNTFEANGKALLLLTKEDFRYRSPHSGDELYELLQHILKQRK	kon	97000
Y104A-V112E-PNT domain (domain or fragment, human, UniProt P41212 40-125, looked up, ETV6 PNT domain, human; source: E. coli BL21 (λDE3), purified (Ni-NTA, thrombin cleavage); not shown: His6, N-terminal, cleaved) ALRMEEDSIRLPAHLRLQPIYWSRDDVAQWLKWAENEFSLRPIDSNTFEMNGKALLLLTKEDFRARSPHSGDELYELLQHILKQRK	kon	730000

Please find the next binder below.
Report kon for V112E-PNT domain (ETV6 residues 40-125 with the V112E mutation) (domain or fragment, human, UniProt P41212 40-125, looked up, ETV6 PNT domain fragment, human, residues 40-125; expressed as residues 1-125 and cut by thrombin at the internal site V37-P38-R39/A40; 15N- or 13C/15N-labelled or unlabelled in NMR; also called V112E-PNT domain analyte; source: E. coli BL21 (λDE3), purified (Ni-NTA, thrombin cleavage, Superdex S75; size exclusion omitted for SPR); not shown: His6, N-terminal, cleaved) ALRMEEDSIRLPAHLRLQPIYWSRDDVAQWLKWAENEFSLRPIDSNTFEMNGKALLLLTKEDFRYRSPHSGDELYELLQHILKQRK please.
440000
